Examples of binders with documented fold change of affinity follow.
# target desc: T1, Human CD137 ECD (human)
# T1 construct: also called 4-1BB
# T1 sequence (chain, as listed by the source limits assumed): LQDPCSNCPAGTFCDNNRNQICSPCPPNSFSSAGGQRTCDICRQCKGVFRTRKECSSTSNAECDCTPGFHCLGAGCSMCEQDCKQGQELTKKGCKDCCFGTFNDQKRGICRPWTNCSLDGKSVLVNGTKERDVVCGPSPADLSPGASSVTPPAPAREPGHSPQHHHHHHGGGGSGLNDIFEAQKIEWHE
# assay name: single mutant vs template dBBDu183H
All answers are understood in fold, so give the number only.

H183/L072 VH A60W (antibody, name in Kabat numbering, V domains shown) VH: QVQLVESGGGLVQPGRSLRLSCAASGFTFSNAWMHWVRQAPGKGLEWVAQIKDKGNAYAAYYWPSVKGRFTISRDDSKNSIYLQMNSLKTEDTAVYYCHYVHYASASTVLPAFGVDAWGQGTTVTVSS VL: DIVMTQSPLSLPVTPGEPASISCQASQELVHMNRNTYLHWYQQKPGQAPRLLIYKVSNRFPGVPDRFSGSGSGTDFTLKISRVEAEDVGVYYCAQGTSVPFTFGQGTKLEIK ... 0.9
H183/L072 VH A100I (antibody, name in Kabat numbering, V domains shown) VH: QVQLVESGGGLVQPGRSLRLSCAASGFTFSNAWMHWVRQAPGKGLEWVAQIKDKGNAYAAYYAPSVKGRFTISRDDSKNSIYLQMNSLKTEDTAVYYCHYVHYASISTVLPAFGVDAWGQGTTVTVSS VL: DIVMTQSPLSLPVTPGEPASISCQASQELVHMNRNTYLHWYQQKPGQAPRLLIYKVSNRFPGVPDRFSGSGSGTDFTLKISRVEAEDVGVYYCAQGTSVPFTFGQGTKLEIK ... 0
H183/L072 VH F27D (antibody, name in Kabat numbering, V domains shown) VH: QVQLVESGGGLVQPGRSLRLSCAASGDTFSNAWMHWVRQAPGKGLEWVAQIKDKGNAYAAYYAPSVKGRFTISRDDSKNSIYLQMNSLKTEDTAVYYCHYVHYASASTVLPAFGVDAWGQGTTVTVSS VL: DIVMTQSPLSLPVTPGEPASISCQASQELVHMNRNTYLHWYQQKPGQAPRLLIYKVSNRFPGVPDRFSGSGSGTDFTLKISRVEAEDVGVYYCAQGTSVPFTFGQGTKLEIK ... 0.5
H183/L072 VH Y58V (antibody, name in Kabat numbering, V domains shown) VH: QVQLVESGGGLVQPGRSLRLSCAASGFTFSNAWMHWVRQAPGKGLEWVAQIKDKGNAYAAVYAPSVKGRFTISRDDSKNSIYLQMNSLKTEDTAVYYCHYVHYASASTVLPAFGVDAWGQGTTVTVSS VL: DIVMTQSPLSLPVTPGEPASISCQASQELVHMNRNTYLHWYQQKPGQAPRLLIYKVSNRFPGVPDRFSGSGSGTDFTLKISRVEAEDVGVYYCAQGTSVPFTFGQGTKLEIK ... 0.2

Let us examine a further case.
Q) Can you share its fold change of affinity? I mean this binder: H183/L072 VH F29Y (antibody, name in Kabat numbering, V domains shown) VH: QVQLVESGGGLVQPGRSLRLSCAASGFTYSNAWMHWVRQAPGKGLEWVAQIKDKGNAYAAYYAPSVKGRFTISRDDSKNSIYLQMNSLKTEDTAVYYCHYVHYASASTVLPAFGVDAWGQGTTVTVSS VL: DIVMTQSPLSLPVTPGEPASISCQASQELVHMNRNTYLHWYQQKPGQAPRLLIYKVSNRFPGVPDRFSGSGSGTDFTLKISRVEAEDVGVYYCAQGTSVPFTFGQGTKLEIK
A) 0.2

Recorded values, source patent US20210388087A1.
